- test-system: GluN2D-containing NMDA receptors (Homo sapiens, UniProt O15399)
- Sequence (O15399 28-1336, other chains not shown): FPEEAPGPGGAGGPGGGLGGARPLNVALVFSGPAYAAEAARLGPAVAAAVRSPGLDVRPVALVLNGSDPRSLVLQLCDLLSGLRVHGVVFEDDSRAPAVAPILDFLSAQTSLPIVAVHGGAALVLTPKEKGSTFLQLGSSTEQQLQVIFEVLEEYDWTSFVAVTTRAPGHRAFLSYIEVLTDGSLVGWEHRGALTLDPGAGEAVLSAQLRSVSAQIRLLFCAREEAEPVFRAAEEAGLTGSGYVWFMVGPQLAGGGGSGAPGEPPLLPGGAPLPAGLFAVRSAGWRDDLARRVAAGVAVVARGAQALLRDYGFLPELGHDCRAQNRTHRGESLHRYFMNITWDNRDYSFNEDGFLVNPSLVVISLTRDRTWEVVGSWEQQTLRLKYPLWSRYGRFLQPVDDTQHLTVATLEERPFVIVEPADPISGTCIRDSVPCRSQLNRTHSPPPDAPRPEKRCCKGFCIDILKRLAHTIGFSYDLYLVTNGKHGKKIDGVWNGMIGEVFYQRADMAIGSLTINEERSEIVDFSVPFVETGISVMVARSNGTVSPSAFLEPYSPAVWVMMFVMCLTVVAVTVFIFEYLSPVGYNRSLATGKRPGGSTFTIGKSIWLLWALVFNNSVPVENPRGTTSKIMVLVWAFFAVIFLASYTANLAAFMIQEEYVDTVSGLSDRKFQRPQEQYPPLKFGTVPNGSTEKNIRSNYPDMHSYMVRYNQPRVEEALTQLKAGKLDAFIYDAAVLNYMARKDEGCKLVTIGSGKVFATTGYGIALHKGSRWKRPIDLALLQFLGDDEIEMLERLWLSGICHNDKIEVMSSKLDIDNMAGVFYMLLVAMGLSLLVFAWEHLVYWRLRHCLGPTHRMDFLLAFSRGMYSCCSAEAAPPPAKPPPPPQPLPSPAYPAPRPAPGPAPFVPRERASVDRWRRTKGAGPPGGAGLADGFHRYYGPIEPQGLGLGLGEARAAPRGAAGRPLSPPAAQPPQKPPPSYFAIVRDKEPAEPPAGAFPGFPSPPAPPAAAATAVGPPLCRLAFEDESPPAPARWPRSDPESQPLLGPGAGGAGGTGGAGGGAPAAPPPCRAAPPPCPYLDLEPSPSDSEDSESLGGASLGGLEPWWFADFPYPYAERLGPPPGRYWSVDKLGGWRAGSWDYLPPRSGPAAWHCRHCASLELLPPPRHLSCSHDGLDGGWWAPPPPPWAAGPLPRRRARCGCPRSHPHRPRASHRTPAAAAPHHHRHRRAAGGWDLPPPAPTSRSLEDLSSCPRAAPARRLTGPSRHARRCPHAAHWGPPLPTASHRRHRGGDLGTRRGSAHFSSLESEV
- assay-details: Two-electrode voltage-clamp recordings from Xenopus laevis oocytes, GluN2D
- Type: cell-based
- condition-context: Table 1; in brackets after EC50; percent of response without compound
assay-metric: maximal potentiation Glu N2D
Report as: number unit

Cc1sc2ncn(CC(=O)N3CCCC3)c(=O)c2c1-c1ccc(N=[N+]=[N-])cc1 [4-N3—Ph / Me] : 426%
Cc1sc2ncn(CC(=O)N3CCCC3)c(=O)c2c1-c1cc(F)cc(F)c1 [3,5-F—Ph / Me] : 748%
Cc1sc2ncn(CC(=O)N3CCCC3)c(=O)c2c1-c1ccc(Br)cc1 [4-Br—Ph / Me] : 400%
Cc1sc2ncn(CC(=O)N3CCCC3)c(=O)c2c1-c1cccc(-n2cncn2)c1 [3-1,2,4 triazolyl-Ph / Me] : 239%
Cc1sc2ncn(CC(=O)N3CCCC3)c(=O)c2c1-c1cccc(-n2ccnc2)c1 [3-N-imidazolyl-Ph / Me] : 207%

Entry under review: [N-]=[N+]=Nc1ccc(-c2csc3ncn(CC(=O)N4CCCC4)c(=O)c23)cc1 [4-N3—Ph / H] . Reported maximal potentiation Glu N2D? 730%

Please do the same for Cc1sc2ncn(CC(=O)N3CCCC3)c(=O)c2c1-c1cc(Br)cc(Br)c1 [3,5-Br—Ph / Me] as well. 202%

// query: Cc1sc2ncn(CC(=O)N3CCCC3)c(=O)c2c1-c1ccc(Cl)cc1 [4-Cl—Ph / Me] 381%

---

- test-system: GluN2D-containing NMDA receptors (Homo sapiens, UniProt O15399)
- assay-details: Two-electrode voltage-clamp recordings from Xenopus laevis oocytes, GluN2D
- Type: cell-based
- condition-context: Table 1; in brackets after EC50; percent of response without compound
Each entry gets false if its maximal potentiation Glu N2D stays under 500%, and true if its maximal potentiation Glu N2D is 500% or above.

Cc1sc2ncn(CC(=O)N3CCCC3)c(=O)c2c1-c1ccc2c(c1)CCC2 : true
Cc1ccc(-c2c(C)sc3ncn(CC(=O)N4CCCC4)c(=O)c23)cc1C : false

Can Cc1sc2ncn(CC(=O)N3CCCC3)c(=O)c2c1-c1ccccc1 be said to have maximal potentiation Glu N2D at or above 500%? false

Could you do the same for Cc1sc2ncn(CC(=O)N3CCCC3)c(=O)c2c1-c1cccc(N=[N+]=[N-])c1 , please? true

---

- test-system: GluN2C-containing NMDA receptors (Homo sapiens, UniProt Q05586+Q14957)
- Sequence (Q14957 20-1233, other chains not shown): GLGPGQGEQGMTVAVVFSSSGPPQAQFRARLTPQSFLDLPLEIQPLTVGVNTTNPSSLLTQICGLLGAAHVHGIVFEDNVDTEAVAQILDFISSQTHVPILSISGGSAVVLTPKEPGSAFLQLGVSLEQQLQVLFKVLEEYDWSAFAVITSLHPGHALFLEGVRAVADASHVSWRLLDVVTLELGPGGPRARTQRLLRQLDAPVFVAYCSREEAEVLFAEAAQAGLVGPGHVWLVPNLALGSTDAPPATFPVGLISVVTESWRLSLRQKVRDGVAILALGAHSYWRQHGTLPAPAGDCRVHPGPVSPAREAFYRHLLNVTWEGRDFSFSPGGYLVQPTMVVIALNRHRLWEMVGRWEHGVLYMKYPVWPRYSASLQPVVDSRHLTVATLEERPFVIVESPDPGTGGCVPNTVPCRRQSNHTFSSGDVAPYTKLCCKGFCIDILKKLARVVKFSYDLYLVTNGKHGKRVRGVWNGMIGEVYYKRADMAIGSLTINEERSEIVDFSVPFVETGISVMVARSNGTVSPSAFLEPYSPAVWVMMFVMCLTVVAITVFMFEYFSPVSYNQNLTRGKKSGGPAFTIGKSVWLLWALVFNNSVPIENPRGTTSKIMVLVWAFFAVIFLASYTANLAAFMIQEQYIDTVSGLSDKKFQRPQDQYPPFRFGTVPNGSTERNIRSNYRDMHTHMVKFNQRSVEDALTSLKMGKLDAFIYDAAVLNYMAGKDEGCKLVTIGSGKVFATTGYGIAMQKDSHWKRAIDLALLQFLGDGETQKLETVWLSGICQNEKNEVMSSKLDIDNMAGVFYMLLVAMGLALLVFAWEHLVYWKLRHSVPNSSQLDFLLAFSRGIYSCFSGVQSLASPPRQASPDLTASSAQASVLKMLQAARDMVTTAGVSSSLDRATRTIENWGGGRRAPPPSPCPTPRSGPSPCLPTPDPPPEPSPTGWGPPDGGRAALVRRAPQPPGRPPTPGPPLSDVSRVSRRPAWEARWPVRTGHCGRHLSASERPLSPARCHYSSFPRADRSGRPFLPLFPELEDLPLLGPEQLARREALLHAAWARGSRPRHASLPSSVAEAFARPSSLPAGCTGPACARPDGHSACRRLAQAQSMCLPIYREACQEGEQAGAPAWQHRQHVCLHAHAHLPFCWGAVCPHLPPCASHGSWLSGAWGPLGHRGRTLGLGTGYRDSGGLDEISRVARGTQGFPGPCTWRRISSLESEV
- assay-details: Two-electrode voltage-clamp recordings from Xenopus laevis oocytes, GluN2C
- Assay type: cell-based
- condition-context: Table 6; read-out: IC50 (μM) Glu N2C
assay-metric: IC50 (µM)
Express it in µM; write the number only.

COCCN1Cc2c(sc(C)c2C)N(C(=O)c2ccc(OC)cc2)C1 : 46

# evaluate next
Entry COc1ccc(C(=O)N2CN(CC3CCCO3)Cc3c2sc(C)c3C)cc1 (centres unmarked) has what IC50? 6

---

- test-system: GluN2D-containing NMDA receptors (Homo sapiens, UniProt O15399)
- assay-details: Two-electrode voltage-clamp recordings from Xenopus laevis oocytes, GluN2D
- Assay type: cell-based
- condition-context: Table 1; in brackets after EC50; percent of response without compound
assay-metric: maximal potentiation Glu N2D
For clarity, give the value followed by its unit.

For orientation, consider the following solved cases.
Cc1sc2ncn(CC(=O)N3CCCC3)c(=O)c2c1-c1cc(I)cc(I)c1 : 432%
Cc1sc2ncn(CC(=O)N3CCCC3)c(=O)c2c1-c1cccc([N+](=O)[O-])c1 : 1860%
Cc1sc2ncn(CC(=O)N3CCCC3)c(=O)c2c1-c1ccc(OCc2ccccc2)cc1 : 291%

Please find the next molecule below.
Which maximal potentiation Glu N2D value is on record for Cc1sc2ncn(CC(=O)N3CCCC3)c(=O)c2c1-c1cccc(C(F)(F)F)c1 ? 1735%
